biological target: RORγt (Homo sapiens, UniProt P51449); experiment: RORγt binding test using fluorescent-labeled synthetic ligand (TR-FRET); conditions: test compound 1 μM; read-out: binding inhibitory rate (%) of fluorescent-labeled synthetic ligand to RORγt at test compound 1 μM
Sequence (P51449 1-497 isoform P51449-2, species assumed): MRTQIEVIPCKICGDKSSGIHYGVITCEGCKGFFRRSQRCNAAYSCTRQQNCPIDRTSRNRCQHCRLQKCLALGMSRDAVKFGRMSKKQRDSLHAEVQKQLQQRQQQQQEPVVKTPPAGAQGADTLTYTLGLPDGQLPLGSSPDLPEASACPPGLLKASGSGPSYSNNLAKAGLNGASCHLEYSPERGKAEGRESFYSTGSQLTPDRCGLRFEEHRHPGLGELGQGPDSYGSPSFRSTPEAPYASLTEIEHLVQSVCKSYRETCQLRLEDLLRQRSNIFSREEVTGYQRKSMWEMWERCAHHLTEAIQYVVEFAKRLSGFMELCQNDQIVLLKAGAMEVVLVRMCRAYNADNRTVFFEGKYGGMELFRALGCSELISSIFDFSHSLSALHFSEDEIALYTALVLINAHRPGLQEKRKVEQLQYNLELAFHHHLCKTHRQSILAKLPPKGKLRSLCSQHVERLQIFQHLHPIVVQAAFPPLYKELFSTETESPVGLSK
quantity kind: inhibition at 1 µM (%)
Write the answer as a number in %, unit excluded.

Use these answered entries as a reference point.
CC(C)n1c(=O)n(CC2CC2)c(=O)c2cc(NC(=O)N3CCC[C@@H](NC(=O)c4ccc(C#N)s4)C3)c(F)cc21	102
CC(C)n1c(=O)n(CC2CC2)c(=O)c2cc(NC(=O)N3CCO[C@@H](C(=O)Nc4cc(Cl)c(C#N)cc4F)C3)c(F)cc21	102

Continue with the compound presented below.
So for `Cc1nc2cc(C(=O)N[C@@H]3CCCN(C(=O)Nc4cc5c(=O)n(CC6CC6)c(=O)n(C(C)C)c5cc4F)C3)ccc2o1` , the logged inhibition at 1 µM turned out to be 102
